- target_of_assay: T1, recombinant human regenerating islet-derived protein 1α (REG1A) (human, UniProt P05451 23-166, limits assumed)
- T1 construct: also called recombinant human REG1A; recombinant REG1A
- T1 sequence (looked up): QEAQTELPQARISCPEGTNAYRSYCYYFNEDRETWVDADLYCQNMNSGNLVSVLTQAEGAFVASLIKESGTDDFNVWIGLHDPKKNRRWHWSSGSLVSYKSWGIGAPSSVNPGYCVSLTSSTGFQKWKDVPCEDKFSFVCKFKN
- run_description: sandwich ELISA; capture 11D11B11; REG1A 1.23 ng/mL
readout_kind: OD value (OD)
Answer with a number only, understood to be in OD.

{"binder": "antibody 21B11D2 (antibody, mouse IgG2b, kappa, V domains shown, Mouse monoclonal from hybridoma, stated mouse IgG1/Kappa; Used unlabelled as capture and biotin-labelled as detection antibody; also called 21B11D2-biotin) VH: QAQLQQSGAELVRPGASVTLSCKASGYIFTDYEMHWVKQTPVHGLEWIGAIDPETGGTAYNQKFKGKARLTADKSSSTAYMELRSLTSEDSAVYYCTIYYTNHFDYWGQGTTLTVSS VL: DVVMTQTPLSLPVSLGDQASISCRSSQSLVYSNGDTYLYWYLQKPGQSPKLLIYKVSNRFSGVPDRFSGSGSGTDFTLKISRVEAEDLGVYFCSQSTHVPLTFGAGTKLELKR", "OD value (OD)": 0.07}

input: What measured OD value goes with antibody 11D11B11 (antibody, mouse IgG2a, kappa, V domains shown, Mouse monoclonal from hybridoma, stated mouse IgG1/Kappa; Used unlabelled as capture and biotin-labelled as detection antibody; also called 11D11B11-biotin) VH: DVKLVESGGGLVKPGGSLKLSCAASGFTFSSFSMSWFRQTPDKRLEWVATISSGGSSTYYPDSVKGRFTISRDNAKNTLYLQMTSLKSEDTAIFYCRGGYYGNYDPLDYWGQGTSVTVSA VL: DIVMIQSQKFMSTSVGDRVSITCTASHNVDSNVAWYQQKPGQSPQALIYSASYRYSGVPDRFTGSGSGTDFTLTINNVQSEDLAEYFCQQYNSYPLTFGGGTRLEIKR ?
output: 0.066

input: What measured OD value goes with antibody 12F12A10 (antibody, V domains shown, Mouse monoclonal from hybridoma, stated mouse IgG1/Kappa; also called 12F12A10-biotin; Antibody 2) VH: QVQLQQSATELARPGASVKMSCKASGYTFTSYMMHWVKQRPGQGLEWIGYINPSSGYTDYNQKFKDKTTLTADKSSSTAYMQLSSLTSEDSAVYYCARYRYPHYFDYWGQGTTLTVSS VL: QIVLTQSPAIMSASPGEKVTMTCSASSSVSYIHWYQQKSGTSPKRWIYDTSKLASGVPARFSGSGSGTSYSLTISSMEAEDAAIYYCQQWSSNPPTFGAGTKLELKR ?
output: 1.05

input: What measured OD value goes with antibody 4H8F1 (antibody, V domains shown, Mouse monoclonal from hybridoma, stated mouse IgG1/Kappa; also called 4H8F1-biotin; Antibody 1) VH: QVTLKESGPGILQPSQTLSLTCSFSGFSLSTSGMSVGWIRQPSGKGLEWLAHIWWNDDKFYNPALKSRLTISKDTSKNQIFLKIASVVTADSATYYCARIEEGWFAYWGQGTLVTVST VL: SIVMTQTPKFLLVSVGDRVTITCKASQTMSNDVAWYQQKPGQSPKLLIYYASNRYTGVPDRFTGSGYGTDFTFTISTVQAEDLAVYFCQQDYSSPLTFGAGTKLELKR ?
output: 1.37
